system.tested: GST-Rok-C97-191 (Bacillus subtilis subsp. subtilis str. …, UniProt O34857 97-191)
Sequence: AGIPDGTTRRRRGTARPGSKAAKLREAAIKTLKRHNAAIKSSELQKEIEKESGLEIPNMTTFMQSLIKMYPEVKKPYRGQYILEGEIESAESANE
assay.details: protein binding microarray; Rok is a gene silencer of Bacillus subtilis; high values mean tight binding
condition.label: protein: recombinant; tags: GST (pTH5325, pDEST15-Magic modified); dsDNA, one strand shown
Whole data set: some 33,000 sequences, median “e-score” near -0.038, cut for the highest 2% near 0.33. The sample holds the highest values, similar sequences and a random draw of the others, so the mix is not that of the screen.
I'd appreciate it if you could label each record using binding signal and these ranges: low: < 0.08 E-score; mid: ≥ 0.08 E-score and < 0.3 E-score; high: ≥ 0.3 E-score

Band for ATCTACGA ?
high

The entry to classify is GAATTATC ; which class holds it?
mid

For CGTCCACG , which binding signal bin applies?
low

Exam item: assign ACTACGAA to the correct category.
mid

Consider GAGGAACA . To which binding signal class does it belong?
low

Just checking, what class would you give GCATATAC here?
mid

Category of CCTACTAC :
high

Dear colleague, I would appreciate it if you could identify the bin for TAACTATA and reply at your convenience.
high

Hey, which category is AGTAGTAA in, do you know?
high

Class for ACTACGAT ?
high

# bin lookup: classify CGCGATTA by its binding signal
low

Band for GTACCAAC ?
low

Please classify: CGGCACTC
low

Sort into band: GGATATAC
mid

Lab note: which band did AGAAGACA land in?
low

Which band does CCTATTAG fall in?
mid

Exam item: assign GATTGTAA to the correct category.
low

Dear colleague, I would appreciate it if you could identify the bin for AATCGTCG and reply at your convenience.
low

Category lookup for the sequence AAAATGTA
high

Pick a category. Item: TACAGTCA
mid

Into which bin does this sequence go? ATCTACCC
mid

Category of GAATTACA :
mid

State the class of the sequence shown: CAATAAGA
low

Would you mind sorting CGAGAAGA into the appropriate category?
low

Category of ATCTATCG :
high

Band for GAAATGTC ?
mid

For this sequence, which bin applies? ACTCGGTA
mid

Classify this sequence: AATATTTA
high

State the band of ATTTGTAC
high

State the band of AAATAGCA
low

Which class is correct for the following sequence? CCAACTAA
mid

Exercise: read the entry AACATCGA and state which class it falls under.
mid

Pick a category. Item: ATATCGTA
mid

Class? Entry: GATTGTAC
high

Hey, which category is GATAGCTA in, do you know?
high

Which band does GTCTACGA fall in?
low

Hello team, could you let me know which band the following sequence falls into: CCAAGTTC
low

GET /class?item= CTTTTTGC
low

Kindly state the category for this sequence: CGTCCTTA
mid

Returns: class label. Input: AGCTGAAC
low

In plain terms, what class is ATAGGGAC ?
low

Into which bin does this sequence go? ACGTATAT
high

Returns: class label. Input: AGCGTTCC
low

Using the reported binding signal, which band applies to GTAACTGA ?
mid

# bin lookup: classify ATCTACCG by its binding signal
high

Which category does the recorded binding signal put ACGGGAGA in?
low

Kindly state the category for this sequence: GTCTACCA
mid

Hi, small favor: classify AATATTAC by its binding signal when you get a moment.
mid

Bin? TAATTATA
high

Which band does CGTAGTAA fall in?
mid

Kindly state the category for this sequence: AAATTATC
high

In plain terms, what class is CTCTATAC ?
mid

Place this sequence in its band: CTTATTCA
low

Would you mind sorting GTATATAC into the appropriate category?
high

State the band of AAAACCAA
low

Which of the defined bands does the recorded binding signal of AAATAGTG sit within?
mid

Where would AATAGCTA land among the classes by reported binding signal?
high

Class? Entry: AATTGTAC
mid

Determine which band this sequence sits in: ATATACAC
mid

Hey, which category is AAATAGTC in, do you know?
low

Please classify: CCTACTTC
mid

Which class holds AGGAACCA ?
mid

Note: place this sequence into its band. Item: AGCGGACG
low

Where would AAATTATA land among the classes by reported binding signal?
high

Just checking, what class would you give GAATAGTA here?
high

Category of ATTTGTAA :
mid

Which class holds AGTAATAC ?
mid

Lab log: CTATGAGC — assign binding signal category
low

// return the class label for ACGTATAA
mid

Looking at GAAATGCA , which class would you pick?
low

Given CTCTACGA , name the class its binding signal places it in.
mid

Category of CTTTGTAC :
mid

In plain terms, what class is ATATAGTA ?
high

GET /class?item= ACTGCCCT
low
